Reference for the values: PubChem BioAssay (NCI)

system: SNB-19 CNS; test: NCI-60 one-dose screen, 48 h (100 = growth as untreated, 0 = no growth, -100 = all killed); settings: 10 µM unless noted
Compounds without any hit were thinned out: in the full panel of roughly 83,000, 20% have a hit. Calls of active or inactive are those of the source. How the source made its calls: active means growth percent below 10; inactive means the rest.
Consider the following compounds; for each one, report its growth.

Give growth for each of the items listed below.
1. O=C(COc1cccc(/C=C2\Oc3ccc4ccccc4c3C2=O)c1)c1ccc([N+](=O)[O-])cc1
2. CC[N+](CCCCCCCCCC[N+](CC)(c1ccccn1)c1ccccn1)(c1ccccn1)c1ccccn1
3. O=C(C(=O)c1cc(Br)ccc1O)c1cc(Br)ccc1O

Reply text:
1: 100% (inactive); 2: 13.3% (inactive); 3: 37.9% (inactive)

---

test system: MALME-3M melanoma; assay: NCI-60 one-dose screen, 48 h; conditions: 10 µM unless noted
The panel holds about 83,000 compounds, 20% with a hit somewhere; the sample as a whole holds those more often. The source made the active and inactive calls. How the source made its calls: active means growth percent below 10; inactive means the rest.
Return exactly one item of true for active, false for inactive

Reference set (3 entries):
>>> assigned_label("O=C1/C(=C/c2cccc(Cl)c2)CCc2ccccc21")
"false"
>>> assigned_label("COc1cc(/C=C2\\CN(S(=O)(=O)c3ccc(C)cc3)C/C(=C\\c3cc(CN4CCOCC4)c(O)c(OC)c3)C2=O)cc(CN2CCOCC2)c1O")
"true"
>>> assigned_label("c1ccc(-c2nc(Nc3nccnn3)c3ccccc3n2)cc1")
"false"

Could you now look at the following molecule, please?
Inquiry: I'd appreciate the recorded outcome for CC1CN(CC(O)c2ccc(Br)cc2)CCO1 (stereo not given) from this test.
Reply text: false

---

I'd be grateful if you could share measured growth for these entries.
tested on: LOX IMVI melanoma; test: NCI-60 one-dose screen, 48 h (100 = growth as untreated, 0 = no growth, -100 = all killed); conditions: 10 µM unless noted
About 83,000 compounds went through this panel and 20% of them were active in at least one assay; those are over-represented in the sample as a whole. The source made the active and inactive calls. The calls were made as follows: active = growth percent below 10; inactive = the rest.

Answered examples (10):
>>> recorded_measurement("C#C[C@]1(O)CCC2C3CCc4cc(O)ccc4C3CC[C@@]21C (some centres not stated)")
"41.8% (inactive)"
>>> recorded_measurement("CC12CCC3C(=CCc4cc(O)ccc43)C1CCC2=O (configuration not stated)")
"102% (inactive)"
>>> recorded_measurement("Cn1cc(NC(=O)Nc2cc(C(=O)O)n(C)c2)cc1C(=O)O")
"98.1% (inactive)"
>>> recorded_measurement("CCCCc1n(Cc2ccc3ccccc3c2)cc[n+]1Cc1ccc2ccccc2c1")
"-88.2% (active)"
>>> recorded_measurement("c1ccc(N2c3nc4ccccc4cc3Sc3cc4ccccc4nc32)nc1")
"84.1% (inactive)"
>>> recorded_measurement("O=c1oc2c(cc1-c1ccc([N+](=O)[O-])cc1)C(O)Oc1ccccc1-2 (configuration not stated)")
"98.9% (inactive)"
>>> recorded_measurement("CC(NNC(=S)N1CCCCCC1)c1ccc2ccccc2n1 (configuration not stated)")
"29.6% (inactive)"
>>> recorded_measurement("COc1ccc(C2=NN(C(C)=O)C(c3cccc(Nc4ccnc5cc(Cl)ccc45)c3)C2)cc1 (configuration not stated)")
"42.7% (inactive)"
>>> recorded_measurement("COc1ccc(CNC(=O)c2c(C)n([O-])c3ccc(OC)cc3[n+]2=O)cc1")
"101% (inactive)"
>>> recorded_measurement("CCOC(=O)c1cnc2c(C)cc(C)cc2c1NCCCN(C)C")
"23.2% (inactive)"

Parameters: items (list). Returns: growth for each item.
1. Clc1ccc(C2c3ccccc3-c3nccn32)c(Cl)c1 (configuration not stated)
2. Oc1ccccc1/C=N/N1CCCCCC1
3. O=C(Nc1ccccc1)P(=O)(O)c1ccccc1
4. Nc1nc2c(c(=O)[nH]1)C1(C(=O)Nc3ccccc31)c1c(nc(N)[nH]c1=O)N2
5. O=C(c1ccc(N2CCOCC2)cc1[N+](=O)[O-])N1CCOCC1
6. C(=C1c2ccccc2-c2ccccc21)c1ccncc1

Reply text:
["76.5% (inactive)", "96% (inactive)", "96% (inactive)", "98.2% (inactive)", "98.3% (inactive)", "39.5% (inactive)"]
